# experimental-target: RORc ligand binding domain (Homo sapiens, UniProt P51449)
# Construct: host or cells: E. coli
# Sequence (P51449 269-508 limits assumed, species assumed): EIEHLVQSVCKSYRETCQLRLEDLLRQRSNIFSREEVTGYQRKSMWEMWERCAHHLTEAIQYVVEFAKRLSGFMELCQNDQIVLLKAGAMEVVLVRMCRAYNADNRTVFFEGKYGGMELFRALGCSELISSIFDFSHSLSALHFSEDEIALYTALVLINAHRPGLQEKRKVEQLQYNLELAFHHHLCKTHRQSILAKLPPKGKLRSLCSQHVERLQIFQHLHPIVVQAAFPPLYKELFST
# assay-summary: In Vitro RORc Ligand Binding Assay (25-[3H]hydroxycholesterol radioligand filtration)
# test-context: In Vitro RORc Ligand Binding Assay; Table 4; read-out: RORc IC50
Here the recorded IC50 is given for each entry.
Only the number, expressed in nM, is required.

{"columns": ["compound", "units-symbol", "IC50"],
 "data": [
  ["C[C@H]1CCC(c2ccccc2)S(=O)(=O)N1Cc1ccc(N2CCC(c3cc(O)no3)CC2)cc1F (single isomer, unassigned) [Example 153]", "nM", 55]
]}

Let me check: C[C@H]1CCC(c2ccccc2)S(=O)(=O)N1Cc1ccc(N2CCC3(CC2)COC3)cc1F (single isomer, unassigned) [Example 99] , system RORc ligand binding domain (Homo sapiens, UniProt P51449), measured IC50 is 44

Let me check: C[C@H](O)C(=O)N1C[C@H]2C[C@@H]1CN2c1ccc(CN2[C@@H](C)CCC(c3ccccc3)S2(=O)=O)c(F)c1 (single isomer, unassigned) [Example 182] , system RORc ligand binding domain (Homo sapiens, UniProt P51449), measured IC50 is 41

These data points were gathered from patent US9115101B2.
